- protocol.notes: In vivo oral bioavailability assay in rats
- experimental.setup: male, Sprague-Dawley, plasma; rat, oral administration 60 mg/kg; read-out: t1/2 (converted)
metric: half-life

What does the data say about its half-life? Entry: `CO[C@H]1C[C@H]2OC[C@@]2(OC(C)=O)[C@H]2[C@H](OC(=O)c3ccccc3)[C@]34OC(=O)O[C@H]3[C@H](OC(=O)[C@H](O)[C@@H](NC(=O)OC(C)(C)C)c3ccccc3)C(C)=C([C@@H](OC(=O)N(C)C)C(=O)[C@]12C)C4(C)C`
10.4 h

---

- Test system: NCI-H460 non-small cell lung cancer
- protocol.notes: MTT proliferation inhibition, NCI-H460
- Format: cell-based
- experimental.setup: Homo sapiens, NCI-H460, read-out: Proliferation inhibition rate, NCI-H460 Non-small cell lung cancer
Can you tell me inhibition at 1 µM for the items I'm about to list?
One number for each entry, in %.

The cases that follow already have their inhibition at 1 µM on record.
molecule | measured.value
CO[C@H]1C(=O)[C@]2(C)[C@@H](OC)C[C@H]3OC[C@@]3(OC(C)=O)[C@H]2[C@H](OC(=O)c2ccccc2)[C@]23OC(=O)O[C@H]2[C@H](OC(=O)[C@H](O)[C@@H](NC(=O)OC(C)(C)C)c2ccccn2)C(C)=C1C3(C)C [PCMI-04] | 81.8
COC(=O)O[C@H]1C(=O)[C@]2(C)[C@@H](OC)C[C@H]3OC[C@@]3(OC(C)=O)[C@H]2[C@H](OC(=O)c2ccccc2)[C@]23OC(=O)O[C@H]2[C@H](OC(=O)[C@H](O)[C@@H](NC(=O)OC(C)(C)C)c2ccccc2)C(C)=C1C3(C)C [PCMI-12] | 82.3
CO[C@H]1C(=O)[C@@]2(C)[C@H]([C@H](OC(=O)c3ccccc3)[C@]34OC(=O)O[C@H]3[C@H](OC(=O)[C@H](O)[C@@H](NC(=O)OC(C)(C)C)c3ccccc3)C(C)=C1C4(C)C)[C@]1(OC(C)=O)CO[C@@H]1C[C@@H]2O [PCMI-06] | 84.7

Consider the following items and state reported inhibition at 1 µM for each.
1. CCSC(=O)O[C@H]1C(=O)[C@]2(C)[C@@H](OC)C[C@H]3OC[C@@]3(OC(C)=O)[C@H]2[C@H](OC(=O)c2ccccc2)[C@]23OC(=O)O[C@H]2[C@H](OC(=O)[C@H](O)[C@@H](NC(=O)OC(C)(C)C)c2ccccc2)C(C)=C1C3(C)C [PCMI-13]
2. COC(=O)O[C@H]1C[C@H]2OC[C@@]2(OC(C)=O)[C@H]2[C@H](OC(=O)c3ccccc3)[C@]34OC(=O)O[C@H]3[C@H](OC(=O)[C@H](O)[C@@H](NC(=O)OC(C)(C)C)c3ccccn3)C(C)=C([C@@H](OC)C(=O)[C@]12C)C4(C)C [PCMI-18]
3. CO[C@H]1C(=O)[C@]2(C)[C@@H](OC)C[C@H]3OC[C@@]3(OC(C)=O)[C@H]2[C@H](OC(=O)c2ccccc2)[C@]23OC(=O)O[C@H]2[C@H](OC(=O)[C@H](O)[C@@H](NC(=O)c2ccccc2)c2ccccc2)C(C)=C1C3(C)C [PCMI-02]

1. 86.2
2. 88.6
3. 82.2

---

- protocol.notes: Caco-2 cell monolayer membrane transport assay (Papp and recovery)
- Assay type: in vitro ADME
- experimental.setup: human, Caco-2, Papp B-A, Sample-02
metric: Papp B→A (×10⁻⁶ cm/s)
Give bare numbers, in ×10⁻⁶ cm/s.

What does the data say about its Papp B→A? Entry: COCCc1ccc(OCC(O)CNC(C)C)cc1 (stereo not shown) [Metoprolol, reference compound]
23
